Biological target: CXCR7 (Homo sapiens, UniProt P25106)
Sequence (P25106 whole entry): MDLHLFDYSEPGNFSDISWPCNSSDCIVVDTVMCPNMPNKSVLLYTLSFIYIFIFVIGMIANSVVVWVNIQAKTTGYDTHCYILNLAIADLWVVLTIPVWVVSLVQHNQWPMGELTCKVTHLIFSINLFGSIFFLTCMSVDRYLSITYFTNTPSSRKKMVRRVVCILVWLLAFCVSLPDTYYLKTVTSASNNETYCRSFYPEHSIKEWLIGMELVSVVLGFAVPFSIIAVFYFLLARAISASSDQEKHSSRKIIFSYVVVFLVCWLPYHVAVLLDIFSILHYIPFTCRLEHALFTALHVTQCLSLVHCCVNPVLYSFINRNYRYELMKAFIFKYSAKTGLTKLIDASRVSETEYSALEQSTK
Sequence (P32121 whole entry partner): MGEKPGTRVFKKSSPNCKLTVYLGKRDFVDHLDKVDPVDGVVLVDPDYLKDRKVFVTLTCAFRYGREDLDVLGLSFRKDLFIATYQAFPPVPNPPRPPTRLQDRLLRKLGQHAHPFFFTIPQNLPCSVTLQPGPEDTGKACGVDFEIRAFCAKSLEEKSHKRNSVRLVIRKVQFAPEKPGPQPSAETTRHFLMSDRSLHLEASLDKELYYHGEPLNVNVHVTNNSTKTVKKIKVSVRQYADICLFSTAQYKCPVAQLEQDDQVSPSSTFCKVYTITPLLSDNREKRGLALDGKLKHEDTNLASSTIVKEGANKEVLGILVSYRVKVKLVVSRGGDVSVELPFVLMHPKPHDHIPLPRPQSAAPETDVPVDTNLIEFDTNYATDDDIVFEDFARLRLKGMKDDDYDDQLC
Test: PathHunter CHO-K1 CXCR7 b-arrestin recruitment assay (CXCR7 agonistic activity)
Conditions: PathHunter CHO-K1 CXCR7 b-arrestin cell line
pEC50: recorded values
// pEC50: -log10(molar conc.)

Below are worked cases with known answers.
Per the records, this compound ( CN(CCN(Cc1ncccc1C(F)(F)F)C(=O)CNc1cccc2c1CCN(CC1CC1)C2)CC(F)(F)F [Example 280] ) has pEC50 equal to 7.55

The measured pEC50 associated with COCCN1CCc2c(/C=C/C(=O)N(Cc3ccccc3C(F)(F)F)CC(C)(C)O)cccc2C1 [Example 323] reads 6.74

The recorded pEC50 for entry CN(C)CCN(Cc1ccccc1)C(=O)CNc1cccc2c1CCN(C(=O)c1ccccc1)C2 [compound 125] equals 6.62

Now consider a different compound.
Record summary for O=C(CNc1cccc2c1CCN(CC1CC1)C2)N(Cc1ccccc1C(F)(F)F)C1CCOCC1 [Example 74] : reported pEC50 = 7.31
